B1: library; numbered along this chain (parent)
chain: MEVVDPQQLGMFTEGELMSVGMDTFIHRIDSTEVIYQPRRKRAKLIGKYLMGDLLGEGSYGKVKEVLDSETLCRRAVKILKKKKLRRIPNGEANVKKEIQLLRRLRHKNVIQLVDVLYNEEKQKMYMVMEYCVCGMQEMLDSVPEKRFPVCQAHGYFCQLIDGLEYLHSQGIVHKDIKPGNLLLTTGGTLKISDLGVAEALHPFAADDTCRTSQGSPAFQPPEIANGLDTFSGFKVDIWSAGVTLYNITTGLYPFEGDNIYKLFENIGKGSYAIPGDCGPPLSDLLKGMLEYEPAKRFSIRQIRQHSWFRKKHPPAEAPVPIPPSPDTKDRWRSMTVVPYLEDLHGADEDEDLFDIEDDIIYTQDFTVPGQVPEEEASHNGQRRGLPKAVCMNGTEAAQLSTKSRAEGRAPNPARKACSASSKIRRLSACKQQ

- Variants of: B1
- Test name: STK11 functional score (HeLa growth suppression), rescaled enrichment; synonymous median = 1, nonsense median = 0 (normalised score)
- Assay context: with HeLa; variant type: missense
Observable: STK11 functional score
Form rule: numeric answer, no unit written next to it.

Any idea what its STK11 functional score is? The variant is `S307T`
1.22

Look up STK11 functional score: `E121S`
1.17

Which STK11 functional score reading was recorded for the variant `L344T` ?
1.56

Which value of STK11 functional score has been reported for `E351F` in the records?
1.19

# STK11 functional score lookup, item `V66T`
1.12

Query (variant): `D343E` ; field requested: STK11 functional score
1.45

Would you kindly share the measured STK11 functional score for `V114T` ?
1.43

Requested read-out: STK11 functional score. Entry: `C391R`
1.6

Quick one: STK11 functional score for `F298E` ?
-0.101

// lookup STK11 functional score for `S401G`
0.991

Find the recorded STK11 functional score belonging to `Q399L` and report it.
1.31
